# Lookup of reported GI50 keyed by entry
- System: DLD-1
- test summary: NCI tumour cell line growth inhibition, 48 h
Active and inactive are the calls of the source. No stated cut-off is given here; in the data, active = GI50 up to about 1.1 µM and inactive = higher.
measurement kind: GI50

>  <molecule>
CC(=O)OC1[C@H]2c3cc4c(cc3CN3CCC(=C[C@@H]1O)C23)OCO4 (some centres undefined)

>  <measurement kind>
GI50

>  <reported>
> 100 µM (inactive)

$$$$
>  <molecule>
COc1cccc(C2CC(C)=Nc3c(ccc4c3C(=O)c3ccccc3C4=O)N2)c1O (centres undefined)

>  <measurement kind>
GI50

>  <reported>
15 µM (inactive)

$$$$
>  <molecule>
CCOC(=O)CC1=N/C(=N/c2cc(Cl)ccc2Cl)SC1

>  <measurement kind>
GI50

>  <reported>
91.8 µM (inactive)

$$$$
>  <molecule>
Oc1nc(S)nc2c1CCCN2

>  <measurement kind>
GI50

>  <reported>
> 100 µM (inactive)

$$$$
>  <molecule>
C1CCC(OCc2nnn3c2CCC3)OC1 (centres undefined)

>  <measurement kind>
GI50

>  <reported>
> 100 µM (inactive)

$$$$
>  <molecule>
COC(=O)NC1C(C)OC(OC2C/C=C(/C)C3C=CC4C(OC5CC(OC6CCC(OC7CC(O)C(OC8CCC(O)C(C)O8)C(C)O7)C(C)O6)C(OC(C)=O)C(C)O5)C(C)CC(C)C4C3(C)/C(O)=C3/C(=O)OC4(CC(C=O)=CC(O)C4/C=C\2C)C3=O)CC1(C)[N+](=O)[O-] (centres undefined)

>  <measurement kind>
GI50

>  <reported>
2.45 µM (inactive)

$$$$
>  <molecule>
CC1=C2[C@@H](c3ccccc3)C3C=CC2(C=C3C(F)(F)F)N(C(=O)NC2CCCCC2)C1=O (some centres undefined)

>  <measurement kind>
GI50

>  <reported>
> 100 µM (inactive)

$$$$
>  <molecule>
COc1ccc(C2(Cl)C(Cl)(C(F)(F)F)C2(Cl)C(F)(F)F)cc1 (centres undefined)

>  <measurement kind>
GI50

>  <reported>
15.7 µM (inactive)

$$$$
>  <molecule>
CC(=O)/C=C/c1ccc(C)cc1

>  <measurement kind>
GI50

>  <reported>
> 100 µM (inactive)

$$$$

----------
- Tested on: SR
- test summary: NCI tumour cell line growth inhibition, 48 h
Active and inactive are the calls of the source. No stated cut-off is given here; in the data, active = GI50 up to about 1.1 µM and inactive = higher.
Classes used: T = active, F = inactive

>  <compound>
CC1(C)C[C@H]2C=C(C=O)[C@]34C[C@]3(C(=O)OC4O)[C@H]2C1 (some centres not stated)

>  <label value>
F

$$$$
>  <compound>
CC(C)[Si](OC12CCC(CC1O)CC2C(=O)O)(C(C)C)C(C)C (configuration not stated)

>  <label value>
F

$$$$
>  <compound>
COc1cc(/C=N/c2nc3cc4sc(/N=C/c5cc(OC)c(OC)c(OC)c5)nc4cc3s2)cc(OC)c1OC

>  <label value>
F

$$$$
>  <compound>
COC[C@H](C)/N=C/N1CCc2ccccc2C1(Cc1ccccc1)Cc1ccccc1

>  <label value>
F

$$$$
>  <compound>
C/C=C(/C)C(=O)O[C@H]1C(C)=C[C@]23C(=O)[C@@H](C=C(COC(C)=O)[C@@H](O)[C@]12O)[C@H]1[C@@H](C[C@H]3C)[C@@]1(C)OC(=O)/C(C)=C\C

>  <label value>
F

$$$$
>  <compound>
CCOP(=O)(OCC)C1C(CO)OC(n2ccc(=O)[nH]c2=O)C1O (configuration not stated)

>  <label value>
F

$$$$
>  <compound>
CN1CCc2c(sc3nc(S)nc(S)c23)C1

>  <label value>
F

$$$$
>  <compound>
CCCC(=O)OC[n+]1ccc2c(C)c3[nH]c4ccccc4c3c(C)c2c1

>  <label value>
T

$$$$
>  <compound>
O=C1NC2CCCCC2NC1=C(C(=O)c1ccccc1)C(=O)c1ccccc1 (configuration not stated)

>  <label value>
F

$$$$
>  <compound>
COc1ccc(NC(=S)C#N)cc1

>  <label value>
F

$$$$
>  <compound>
O=C(COc1ccc(Cl)cc1)N1N=C(c2ccc([N+](=O)[O-])o2)CC1(O)c1ccccc1 (configuration not stated)

>  <label value>
F

$$$$
>  <compound>
OC1C2[C@@H](O)CCCN2C[C@@H](O)[C@H]1O (some centres not stated)

>  <label value>
F

$$$$
>  <compound>
CC(=O)Nc1ccc(/C=c2\sc3nnc(-c4cccnc4)n3c2=O)cc1

>  <label value>
F

$$$$
>  <compound>
Cc1cc(S(=O)(=O)Nc2nc(N)nc(N3CCOCC3)n2)c(SCC(=O)O)cc1Cl

>  <label value>
F

$$$$
>  <compound>
O=C(CCl)N1CCN(c2ccccc2)CC1

>  <label value>
F

$$$$
>  <compound>
CC(=O)Nc1ccc(C(=O)NN2C(=O)C(Cl)C2c2ccc(Cl)cc2)cc1 (configuration not stated)

>  <label value>
F

$$$$
>  <compound>
CN(C)CCN(C)c1ccc2c(=O)n(CCN(C)C)c(=O)n3c4ccccc4c(=O)c1c23

>  <label value>
T

$$$$
>  <compound>
COc1ccc2cc(/C=N\NC(=O)Nc3cccc4ccccc34)ccc2c1

>  <label value>
F

$$$$
>  <compound>
Cc1nc2c(o1)C(=O)c1ccccc1/C2=N/c1ccc(N2CCOCC2)cc1

>  <label value>
F

$$$$
>  <compound>
CC(=O)OC1CC(n2cc(F)c(=O)[nH]c2=O)OC1CO (configuration not stated)

>  <label value>
T

$$$$
>  <compound>
S=C(S)NCCN1CCNCC1

>  <label value>
F

$$$$
>  <compound>
CC(C)NCC(O)c1ccc(O)c2ncccc12 (configuration not stated)

>  <label value>
F

$$$$

----------
- System: SK-OV-3
- test summary: NCI tumour cell line growth inhibition, 48 h
Calls of active or inactive are those of the source. Rule as the data show it: active = GI50 up to about 1.1 µM and inactive = higher.

>  <compound>
CCCCCCCc1cc(OC(=O)c2c(C)cc(OC)cc2O)cc(O)c1C(=O)O

>  <measured target>
SK-OV-3

>  <GI50>
24.5 µM (inactive)

$$$$
>  <compound>
CCCCCCCCCC/C=C/C=O

>  <measured target>
SK-OV-3

>  <GI50>
> 100 µM (inactive)

$$$$
>  <compound>
O=C(NCCS(=O)(=O)N1C(=O)C2CCCN2C(=O)[C@@H]1Cc1ccccc1)OCc1ccccc1 (stereo partly specified)

>  <measured target>
SK-OV-3

>  <GI50>
> 100 µM (inactive)

$$$$
>  <compound>
O=C(O)CN1CCNCCN(CC(=O)O)CCNCC1

>  <measured target>
SK-OV-3

>  <GI50>
20.1 µM (inactive)

$$$$
>  <compound>
CCCCOC(=O)NC(Nc1ccc(S(N)(=O)=O)cc1)(C(F)(F)F)C(F)(F)F

>  <measured target>
SK-OV-3

>  <GI50>
> 100 µM (inactive)

$$$$
>  <compound>
OCc1ccccc1C1CSCSC1

>  <measured target>
SK-OV-3

>  <GI50>
> 100 µM (inactive)

$$$$

----------
- Tested on: NCI-H522
- test summary: NCI tumour cell line growth inhibition, 48 h
The source made the active and inactive calls. Rule as the data show it: active = GI50 up to about 1.1 µM and inactive = higher.
Classes used: Y for active, N for inactive

>  <compound>
CC(=O)Oc1c(Br)ccc2cc(C(Br)Br)c(C(=O)c3ccccc3)nc12

>  <label value>
N

$$$$
>  <compound>
O=C1CSC(c2c[nH]c3ccccc23)N1c1cccc([N+](=O)[O-])c1 (centres undefined)

>  <label value>
N

$$$$
>  <compound>
O=C(C(Cl)=C(N1CCCCC1)N1CCCCC1)C(Cl)Cl

>  <label value>
N

$$$$
>  <compound>
COc1ccc(/C=C/C(=O)c2c(-c3ccccc3)nn(C)c(=O)c2N2CCCCC2)cc1

>  <label value>
N

$$$$
>  <compound>
CC(=O)Nc1ccc(/C=c2\sc3nnc(-c4cccnc4)n3c2=O)cc1

>  <label value>
N

$$$$
>  <compound>
C[C@@]1(c2ccccc2)O[C@@H]2C[C@H]3[C@@H]4CCC5=CC(=O)C=C[C@]5(C)[C@@]4(F)[C@@H](O)C[C@]3(C)[C@]2(C(=O)CO)O1 [AMCINAFIDE]

>  <label value>
N

$$$$
>  <compound>
CC(=O)OC1CC(n2cc(F)c(=O)[nH]c2=O)OC1CO (centres undefined)

>  <label value>
N

$$$$
>  <compound>
OC1CSCCSCCCSCCSC1

>  <label value>
N

$$$$
>  <compound>
COc1c(C)c2nc3ccccc3nc2c2c(O)ccnc12

>  <label value>
N

$$$$
>  <compound>
COC(=O)c1ccc2c(c1)C(NC(C)=O)CCc1cc(OC)c(OC)c(OC)c1-2 (centres undefined)

>  <label value>
Y

$$$$
>  <compound>
CN(C)Cc1cc(C(=O)/C=C/c2cccc(Cl)c2)cc(CN(C)C)c1O

>  <label value>
N

$$$$
>  <compound>
O=C(c1ccccc1)c1ccc2[nH]c(-c3c(Cl)c(Cl)c(Cl)c(Cl)c3-c3nnc(-c4ccccc4)o3)nc2c1

>  <label value>
N

$$$$
>  <compound>
O=C1NC2CCCCC2NC1=C(C(=O)c1ccccc1)C(=O)c1ccccc1 (centres undefined)

>  <label value>
N

$$$$
>  <compound>
C1OCC2S[C@@H]3COCO[C@@H]3C2O1 (some centres undefined)

>  <label value>
N

$$$$
>  <compound>
O=C(O)CN1C(=O)OC(c2ccccc2)C1=O (centres undefined)

>  <label value>
N

$$$$
>  <compound>
C=CCN1C(=O)/C(=C/c2ccc(C)cc2)NC1=S

>  <label value>
N

$$$$
>  <compound>
CCOC(=O)c1ncn(CCc2ccc(Cl)cc2)c1C

>  <label value>
N

$$$$
>  <compound>
c1ccc(C2C3=C(Nc4ncnn42)c2ccccc2C3)cc1 (centres undefined)

>  <label value>
N

$$$$
>  <compound>
CC(C)(C)C1(O)Cc2ccccc2C(=O)O1 (centres undefined)

>  <label value>
N

$$$$
>  <compound>
COC1CC(OS(=O)(=O)c2ccc(C)cc2)C(OC(=O)c2ccccc2)C(C)O1 (centres undefined)

>  <label value>
N

$$$$
>  <compound>
NC(Cc1nnn[nH]1)C(=O)O (centres undefined)

>  <label value>
N

$$$$
>  <compound>
COc1cc(Nc2cnc3cc(F)c(F)cc3n2)cc(OC)c1

>  <label value>
N

$$$$
>  <compound>
CCN1CCC(O)(c2ccc(OC)cc2)C(C(=O)c2ccc(OC)cc2)C1 (centres undefined)

>  <label value>
N

$$$$
>  <compound>
N#Cc1ccnc(C(=O)N2CCCC2C(=O)O)c1 (centres undefined)

>  <label value>
N

$$$$
>  <compound>
CNS(=O)(=O)NNS(=O)(=O)c1ccc(Cl)cc1

>  <label value>
N

$$$$
>  <compound>
C/C(CN1C(=O)c2ccccc2C1=O)=N\NS(=O)(=O)c1ccc(F)cc1

>  <label value>
N

$$$$
>  <compound>
COc1nc(NC2OCC(OC(C)=O)C(OC(C)=O)C2OC(C)=O)c(/N=C\C=N\c2c(NC3OCC(OC(C)=O)C(OC(C)=O)C3OC(C)=O)nc(OC)n(C)c2=O)c(=O)n1C (centres undefined)

>  <label value>
N

$$$$
>  <compound>
OC1C2[C@@H](O)CCCN2C[C@@H](O)[C@H]1O (some centres undefined)

>  <label value>
N

$$$$
>  <compound>
O=C(/C=c1\oc(=O)/c(=C/C(=O)c2ccc(Cl)cc2)oc1=O)c1ccc(Cl)cc1

>  <label value>
N

$$$$
>  <compound>
Cc1ccc(/N=N/c2c(O)c(C(=O)Nc3ccccc3)cc3ccccc23)c([N+](=O)[O-])c1

>  <label value>
N

$$$$
>  <compound>
BrCC[N+]12CCCN1CCC2

>  <label value>
Y

$$$$
>  <compound>
Cc1ccc(NCC2CC/C(=C\c3ccc(Cl)cc3)C2=O)cc1 (centres undefined)

>  <label value>
N

$$$$
>  <compound>
CCN1C(c2ccccc2)=CC(c2ccccc2)(C(Cl)(Cl)Cl)C=C1c1ccccc1

>  <label value>
N

$$$$
>  <compound>
COC(=O)/C(C#N)=C1\NN=NN1CCCN1CCOCC1

>  <label value>
N

$$$$
>  <compound>
Cc1ccc(C2NC(=O)c3ccccc3N2)s1 (centres undefined)

>  <label value>
N

$$$$
>  <compound>
C=C1CC(c2ccc(O)c(OC)c2)Oc2c(OC)cccc21 (centres undefined)

>  <label value>
N

$$$$
>  <compound>
Cc1ccc(NC(=O)C(=O)C2C(=O)NC(=O)NC2=O)cc1C

>  <label value>
N

$$$$
>  <compound>
Cc1c2cccc-2c(OCCO)cc2c1[nH]c1ccccc12

>  <label value>
N

$$$$
>  <compound>
COC(=O)C1C=NNC1C(=O)OC (centres undefined)

>  <label value>
N

$$$$
>  <compound>
COc1ccc2cc(/C=N\NC(=O)Nc3cccc4ccccc34)ccc2c1

>  <label value>
N

$$$$
>  <compound>
c1ccc(C(NCC2CCO2)(c2ccccc2)c2ccccc2)cc1 (centres undefined)

>  <label value>
N

$$$$
>  <compound>
O=C(O)CCNc1ncc2c(n1)-c1ccccc1OC2

>  <label value>
N

$$$$
>  <compound>
O=P(O)(O)CN1CCN(CP(=O)(O)O)CCN(CP(=O)(O)O)CCN(CP(=O)(O)O)CC1

>  <label value>
N

$$$$
>  <compound>
O=C(CSCC(=O)N/N=C\c1cccc([N+](=O)[O-])c1)N/N=C\c1cccc([N+](=O)[O-])c1

>  <label value>
N

$$$$
